For each of the compounds below, state its % found in microsome suspension.
assay: Peak area in microsome suspension compared with compounds in solution; assay type: in vitro ADME, human; conditions: peak area 15 seconds after addition of NADPH versus same amount (125 nM) in H2O/EtOH
One number for each entry, in %.

Sample answers from the record:
- smiles_entry: "CN(C)CCc1c[nH]c2cccc(OC(=O)C3CC3)c12.O=C(O)/C=C/C(=O)O"
  % found in microsome suspension [%]: 58
- smiles_entry: "CCCCCCCCCCC(=O)Oc1cccc2[nH]cc(CCN(C)C)c12.O=C(O)/C=C/C(=O)O"
  % found in microsome suspension [%]: 45
- smiles_entry: "CCOC(=O)Oc1cccc2[nH]cc(CCN(C)C)c12.O=C(O)/C=C/C(=O)O"
  % found in microsome suspension [%]: 7.1

Now turn to the next compound.
If you can, please state the reported % found in microsome suspension value of `CN(C)CCc1c[nH]c2cccc(OC(=O)N3CCCCC3)c12.O=C(O)/C=C/C(=O)O` . 79

----------
Test: Plasma stability in human plasma
Format: in vitro ADME
Details: human, pooled human plasma; 10 min
Source text: It should be noted that esterase-labile compounds are notoriously difficult to study in microsomal stability studies.[36] Materials for experiments described in the supporting information (solubility) […] Dimethylsulfoxide (DMSO) CHROMASOLV™ Plus, >99.7% Acetonitrile (MeCN) LiChrosolv, hypergrade for LC-MS, Merck Chemicals Formic acid (HCOOH) For LC-MS, Carlo-Erba Water > 18MΩcm quality (Milli-Q, Millipore Di-sodium-hydrogenphoshate dihydrate Merck Sodium-dihydrogenphosphate monohydrate Merck […]
For each entry below, report its remaining at 10 min, 1 μM value.
Numbers only, in %.

- compound: "CC(=O)Oc1cccc2[nH]cc(CCN(C)C)c12.O=C(O)/C=C/C(=O)O [Compound 4a, 4-acetoxy-N,N-dimethyltryptamine]"
  units_symbol: "%"
  reported_measurement: 0.2
- compound: "CN(C)CCc1c[nH]c2cccc(OCc3ccccc3)c12 [Compound 3, 4-Benzyloxy-N,N-dimethyltryptamine]"
  units_symbol: "%"
  reported_measurement: 103
- compound: "CN(C)CCc1c[nH]c2cccc(OC(=O)C3CC3)c12.O=C(O)/C=C/C(=O)O [Compound 4g]"
  units_symbol: "%"
  reported_measurement: 0.1

# ---- query compound ----
Request the reported remaining at 10 min, 1 μM associated with CCOC(=O)Oc1cccc2[nH]cc(CCN(C)C)c12.O=C(O)/C=C/C(=O)O [Compound 4i] 0

----------
test system: porcine liver esterase; experiment: Stability in FaSSIF supplemented with esterase; conditions: calculated remaining prodrug available for GI absorption, predicted level after 5 min at 270 IU/mL (% remaining prodrug)
Assignment: determine reported predicted abs. for the given compounds.

Below, each entry is followed by its recorded predicted abs. result.
- smiles_entry: "CN(C)CCc1c[nH]c2cccc(OC(=O)OCc3ccccc3)c12.O=C(O)/C=C/C(=O)O.O=CO"
  measured_on: "porcine liver esterase"
  reported_measurement: "6.6 × 10^–45"
- smiles_entry: "CC(=O)Oc1cccc2[nH]cc(CCN(C)C)c12.O=C(O)/C=C/C(=O)O"
  measured_on: "porcine liver esterase"
  reported_measurement: "6.2 × 10^–21"
- smiles_entry: "CN(C)CCc1c[nH]c2cccc(OC(=O)C3CC3)c12.O=C(O)/C=C/C(=O)O"
  measured_on: "porcine liver esterase"
  reported_measurement: "1.9 × 10^–15"

Please go through the list and note predicted abs. for each compound.
1. CC(C)COC(=O)Oc1cccc2[nH]cc(CCN(C)C)c12.O=CO
2. COC(=O)Oc1cccc2[nH]cc(CCN(C)C)c12.O=C(O)/C=C/C(=O)O

1. 7.0 × 10^–77
2. 4.1 × 10^–13

What predicted abs. value was documented for this compound, `CCOC(=O)Oc1cccc2[nH]cc(CCN(C)C)c12.O=C(O)/C=C/C(=O)O` ? 2.6 × 10^–35

These entries and their values trace back to paper PMC11997985.
